# Target Or Test System: recombinant human CXCR2 (Homo sapiens, UniProt P25025)
# Construct: TEV protease site; Gal4-VP16 transcription factor
# Sequence (P25025 whole entry, the tested form may be a part): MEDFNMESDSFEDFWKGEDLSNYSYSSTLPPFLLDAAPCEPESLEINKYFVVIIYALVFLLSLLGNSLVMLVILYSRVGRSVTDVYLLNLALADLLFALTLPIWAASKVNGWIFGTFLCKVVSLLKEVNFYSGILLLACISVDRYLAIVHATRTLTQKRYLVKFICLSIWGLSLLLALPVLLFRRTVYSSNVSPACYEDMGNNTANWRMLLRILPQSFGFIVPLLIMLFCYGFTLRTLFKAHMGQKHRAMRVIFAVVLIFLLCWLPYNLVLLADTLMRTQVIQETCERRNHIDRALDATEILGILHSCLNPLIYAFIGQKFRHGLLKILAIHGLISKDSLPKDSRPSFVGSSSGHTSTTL
# Measurement Protocol: CXCR2 Tango assay
# Type: cell-based
# Test Settings: mean pIC50 of multiple test results; stimulated with 80 nM hCXCL1; reporter gene blue/green emission ratio; read-out: pIC50 (CXCR2 Tango assay) (converted)
Test Readout: IC50

In the examples that follow, each entry is paired with its recorded IC50.
[
  {
    "Molecule": "CC1=CCC[C@H]1NC(=O)Nc1ccc(Cl)c(S(=O)(=O)C(C)(C)[C@H]2CCOC2)c1O",
    "Target Or Test System": "recombinant human CXCR2 (Homo sapiens, UniProt P25025)",
    "Experimental Result": "≤ 10 nM"
  },
  {
    "Molecule": "CO[C@H]1COC[C@@H]1S(=O)(=O)c1c(Cl)ccc(NC(=O)N[C@@H]2CCC=C2C)c1O",
    "Target Or Test System": "recombinant human CXCR2 (Homo sapiens, UniProt P25025)",
    "Experimental Result": "≤ 10 nM"
  },
  {
    "Molecule": "CC1=CCC[C@H]1NC(=O)Nc1ccc(Cl)c(S(=O)(=O)[C@@]2(C)CCOC2)c1O",
    "Target Or Test System": "recombinant human CXCR2 (Homo sapiens, UniProt P25025)",
    "Experimental Result": "≤ 10 nM"
  },
  {
    "Molecule": "CC1(S(=O)(=O)c2c(Cl)ccc(NC(=O)N[C@@H]3CCC=C3Cl)c2O)CCOC1 (some centres unmarked)",
    "Target Or Test System": "recombinant human CXCR2 (Homo sapiens, UniProt P25025)",
    "Experimental Result": "≤ 1 nM"
  }
]

Attention now turns to another entry.
// IC50 (recombinant human CXCR2 (Homo sapiens, UniProt P25025)) for CC1=CCCC1NC(=O)Nc1ccc(Cl)c(S(=O)(=O)C(C)(C)C2CCOCC2)c1O (centres unmarked) = ≤ 10 nM
